Cited source: ChEMBL document CHEMBL5291721

Recorded AC50 for the following molecules
# experimental.system: Prostaglandin G/H synthase 1 (Homo sapiens); note: assay procedure not described here
# Type: functional

## Task Query (molecule): "C[C@@H](CN1CC(=O)NC(=O)C1)N1CC(=O)NC(=O)C1" ; field requested: AC50
## Result 2.16 µM

----------
# experimental.system: UniProtKB P06401
# Sequence (P06401 whole entry): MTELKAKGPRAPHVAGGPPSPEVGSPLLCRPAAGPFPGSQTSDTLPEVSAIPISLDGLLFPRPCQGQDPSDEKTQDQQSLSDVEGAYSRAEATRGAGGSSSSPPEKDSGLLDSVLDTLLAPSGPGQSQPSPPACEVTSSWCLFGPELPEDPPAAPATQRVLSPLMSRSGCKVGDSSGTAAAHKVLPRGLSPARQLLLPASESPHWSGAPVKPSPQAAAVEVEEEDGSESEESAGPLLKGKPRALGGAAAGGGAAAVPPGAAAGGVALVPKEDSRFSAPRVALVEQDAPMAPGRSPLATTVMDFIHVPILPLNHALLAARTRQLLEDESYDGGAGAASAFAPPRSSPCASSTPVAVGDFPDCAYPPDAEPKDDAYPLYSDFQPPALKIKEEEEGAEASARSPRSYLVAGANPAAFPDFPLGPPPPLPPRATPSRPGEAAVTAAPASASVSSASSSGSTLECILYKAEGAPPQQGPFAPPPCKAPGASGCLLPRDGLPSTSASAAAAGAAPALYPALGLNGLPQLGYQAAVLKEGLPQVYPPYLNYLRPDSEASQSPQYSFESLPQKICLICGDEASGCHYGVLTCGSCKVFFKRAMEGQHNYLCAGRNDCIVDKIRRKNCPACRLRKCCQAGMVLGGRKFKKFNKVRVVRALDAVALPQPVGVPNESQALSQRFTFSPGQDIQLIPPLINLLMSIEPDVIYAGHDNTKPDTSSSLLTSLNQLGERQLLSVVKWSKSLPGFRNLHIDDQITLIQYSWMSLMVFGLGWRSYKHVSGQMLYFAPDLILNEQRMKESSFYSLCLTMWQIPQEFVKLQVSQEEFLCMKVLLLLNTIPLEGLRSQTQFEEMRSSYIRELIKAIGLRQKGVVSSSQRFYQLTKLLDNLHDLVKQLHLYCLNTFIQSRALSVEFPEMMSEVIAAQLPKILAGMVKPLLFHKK
# Assay type: functional
assay.endpoint: AC50

Observe how each entry below is paired with its result.
> print(dat)
                                   compound  reported.measurement
1  CC1=C(C(=O)O)N2C(=O)[C@@H](NC(=O)[C@H](N)C3=CCC=CC3)[C@H]2SC1 [CEPHRADINE]               > 30 µM
2  O=C1[C@@H]2[C@H]3CC[C@H](C3)[C@@H]2C(=O)N1C[C@@H]1CCCC[C@H]1CN1CCN(c2nsc3ccccc23)CC1 [LURASIDONE]               > 30 µM
3    O=c1[nH]cc(F)c(=O)[nH]1 [FLUOROURACIL]               > 30 µM
4          NCC1(CC(=O)O)CCCCC1 [GABAPENTIN]               > 30 µM
5  O=C(c1ccccc1)c1ccc2n1CCC2C(=O)O (centres undefined) [KETOROLAC]               > 10 µM
6  CN(C)CCC(O)(c1ccccc1)c1ccccc1Cl (centres undefined) [CHLOPHEDIANOL]               > 10 µM

## Task I would be grateful if you could share the reported AC50 for CN(C)CCC=C1c2ccccc2CCc2ccccc21 [AMITRIPTYLINE] .
## Result > 30 µM

## Task Likewise for CCN(CC)CCn1c(=O)c(Cc2ccc(OC)cc2)nc2ccccc21 [CAROVERINE] ?
## Result > 30 µM

----------
# experimental.system: 5-hydroxytryptamine receptor 2A (Homo sapiens, UniProt P28223); note: assay procedure not described here
# Sequence (P28223 whole entry): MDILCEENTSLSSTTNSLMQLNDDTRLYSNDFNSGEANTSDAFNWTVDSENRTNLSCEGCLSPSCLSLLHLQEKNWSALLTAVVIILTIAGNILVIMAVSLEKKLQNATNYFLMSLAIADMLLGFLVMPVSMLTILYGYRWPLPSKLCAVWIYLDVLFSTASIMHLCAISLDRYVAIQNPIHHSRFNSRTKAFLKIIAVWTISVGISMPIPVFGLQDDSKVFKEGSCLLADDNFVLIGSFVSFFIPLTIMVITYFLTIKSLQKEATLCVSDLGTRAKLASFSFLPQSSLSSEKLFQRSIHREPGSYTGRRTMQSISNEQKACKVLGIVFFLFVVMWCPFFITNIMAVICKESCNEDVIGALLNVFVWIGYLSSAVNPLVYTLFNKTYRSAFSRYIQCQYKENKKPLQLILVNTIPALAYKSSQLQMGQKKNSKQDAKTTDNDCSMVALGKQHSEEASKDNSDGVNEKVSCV
assay.endpoint: AC50

> print(dat)
                                   molecule  reported.measurement
1     CC1NCCOC1c1ccccc1 (centres undefined)               > 10 µM
2  CC(=O)SCC(Cc1ccccc1)C(=O)NCC(=O)OCc1ccccc1 (centres undefined)               > 10 µM
3  OCCOCCN1CCN(C(c2ccccc2)c2ccc(Cl)cc2)CC1 (centres undefined) [HYDROXYZINE]              0.146 µM

## Task // lookup AC50 | system=5-hydroxytryptamine receptor 2A (Homo sapiens, UniProt P28223) | key= "Cc1ccc(-c2ncc(Cl)cc2-c2ccc(S(C)(=O)=O)cc2)cn1"
## Result > 10 µM

----------
In this section we review reported AC50 values for a set of compounds.
# experimental.system: Beta-2 adrenergic receptor (Homo sapiens, UniProt P07550); note: assay procedure not described here
# Sequence (P07550 whole entry): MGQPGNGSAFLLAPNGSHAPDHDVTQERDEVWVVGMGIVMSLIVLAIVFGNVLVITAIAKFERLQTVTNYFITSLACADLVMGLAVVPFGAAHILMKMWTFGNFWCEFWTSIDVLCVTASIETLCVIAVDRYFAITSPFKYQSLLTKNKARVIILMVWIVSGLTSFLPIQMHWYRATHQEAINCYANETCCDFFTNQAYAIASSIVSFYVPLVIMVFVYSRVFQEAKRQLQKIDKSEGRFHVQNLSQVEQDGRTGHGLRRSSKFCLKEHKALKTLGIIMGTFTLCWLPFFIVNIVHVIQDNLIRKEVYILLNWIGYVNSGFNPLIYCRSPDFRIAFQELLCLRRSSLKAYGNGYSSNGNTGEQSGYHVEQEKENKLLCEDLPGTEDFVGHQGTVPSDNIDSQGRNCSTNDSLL
# Assay type: functional, cell-based

> print(dat)
                                   compound  reported.measurement
1  CN1C2CCCC1CC(NC(=O)c1nn(C)c3ccccc13)C2 (stereo not drawn)               > 30 µM

## Task # lookup: AC50 of "Nc1cc(N2CCCCC2)nc(N)[n+]1[O-]"
## Result > 30 µM

## Task And the next one, "C[C@]12CCC(=O)C=C1CC[C@H]1[C@@H]3CC[C@](O)(C(=O)CO)[C@@]3(C)C[C@H](O)[C@@]12F" ?
## Result > 30 µM

----------
Measured AC50 on Kappa-type opioid receptor (Homo sapiens, UniProt P41145) follows.
Sequence (P41145 whole entry): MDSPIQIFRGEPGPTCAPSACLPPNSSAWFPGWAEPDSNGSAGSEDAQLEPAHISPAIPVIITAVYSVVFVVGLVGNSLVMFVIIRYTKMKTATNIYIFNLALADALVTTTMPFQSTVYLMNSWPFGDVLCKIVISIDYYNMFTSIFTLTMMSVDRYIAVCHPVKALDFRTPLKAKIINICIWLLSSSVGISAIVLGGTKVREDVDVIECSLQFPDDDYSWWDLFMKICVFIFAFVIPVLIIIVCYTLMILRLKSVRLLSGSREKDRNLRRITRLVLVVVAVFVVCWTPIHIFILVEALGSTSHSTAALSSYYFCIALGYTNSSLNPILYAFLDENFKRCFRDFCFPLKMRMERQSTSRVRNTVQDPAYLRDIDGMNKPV

> print(dat)
                                   compound  assay.endpoint  reported.measurement
1  Cc1ccc(-c2ncc(Cl)cc2-c2ccc(S(C)(=O)=O)cc2)cn1 [ETORICOXIB]            AC50               > 10 µM

Now consider a different compound.
## Task AC50 for COc1nc(C)nc(Cl)c1N=C1NCCN1 [MOXONIDINE] ?
## Result > 30 µM

----------
# experimental.system: UniProtKB P04150
# Sequence (P04150 whole entry): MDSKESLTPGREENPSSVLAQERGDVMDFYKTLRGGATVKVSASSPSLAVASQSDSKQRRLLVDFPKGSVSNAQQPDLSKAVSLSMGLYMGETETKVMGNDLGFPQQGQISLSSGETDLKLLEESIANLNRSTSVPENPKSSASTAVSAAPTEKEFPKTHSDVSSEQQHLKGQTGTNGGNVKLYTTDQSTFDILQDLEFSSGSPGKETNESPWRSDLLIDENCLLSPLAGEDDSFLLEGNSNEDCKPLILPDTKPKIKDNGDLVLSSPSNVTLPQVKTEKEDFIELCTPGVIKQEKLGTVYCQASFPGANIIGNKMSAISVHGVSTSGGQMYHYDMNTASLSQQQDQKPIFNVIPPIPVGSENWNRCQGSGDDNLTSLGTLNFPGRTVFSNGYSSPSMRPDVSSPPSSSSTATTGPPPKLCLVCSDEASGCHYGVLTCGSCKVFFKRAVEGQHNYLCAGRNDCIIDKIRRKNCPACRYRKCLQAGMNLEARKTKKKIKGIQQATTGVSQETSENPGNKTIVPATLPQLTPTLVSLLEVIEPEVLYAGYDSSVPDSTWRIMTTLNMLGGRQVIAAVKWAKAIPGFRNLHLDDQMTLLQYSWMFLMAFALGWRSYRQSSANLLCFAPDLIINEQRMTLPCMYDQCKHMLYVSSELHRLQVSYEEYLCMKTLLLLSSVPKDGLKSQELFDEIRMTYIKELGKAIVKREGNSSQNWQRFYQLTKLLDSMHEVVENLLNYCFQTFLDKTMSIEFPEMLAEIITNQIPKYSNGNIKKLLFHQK
# Format: functional
assay.endpoint: AC50

> print(dat)
                                   compound  reported.measurement
1  Cn1cnc2c(F)c(Nc3ccc(Br)cc3F)c(C(=O)NOCCO)cc21               > 30 µM
2  CCCCCCOC(=O)NC(=N)c1ccc(NCc2nc3cc(C(=O)N(CCC(=O)OCC)c4ccccn4)ccc3n2C)cc1 [DABIGATRAN ETEXILATE]               > 30 µM

## Task Which AC50 value is on record for "O=C1[C@@H]2[C@H]3CC[C@H](C3)[C@@H]2C(=O)N1C[C@@H]1CCCC[C@H]1CN1CCN(c2nsc3ccccc23)CC1" ?
## Result > 10 µM

## Task Repeat for the following compound: "CO[C@@H]1[C@@H](OC(N)=O)[C@@H](O)[C@H](Oc2ccc3c(O)c(NC(=O)c4ccc(O)c(CC=C(C)C)c4)c(=O)oc3c2C)OC1(C)C"
## Result > 30 µM

## Task Check "COc1cccc2c1C(=O)c1c(O)c3c(c(O)c1C2=O)C[C@@](O)(C(=O)CO)C[C@@H]3O[C@H]1C[C@H](N)[C@H](O)[C@H](C)O1" too.
## Result > 10 µM

## Task Again, but for C[C@@H](O)[C@H]1C(=O)N2C(C(=O)O)=C(SCCN=CN)C[C@H]12 [IMIPENEM ANHYDROUS]
## Result > 300 µM

## Task CN1CC2c3ccccc3Oc3ccc(Cl)cc3C2C1 (configuration not stated) ?
## Result > 30 µM

## Task Another compound to look at: "CCC[C@@]1(CCc2ccccc2)CC(O)=C([C@H](CC)c2cccc(NS(=O)(=O)c3ccc(C(F)(F)F)cn3)c2)C(=O)O1"
## Result > 30 µM

## Task Another compound to check: "COc1ccc(-n2nc(C(N)=O)c3c2C(=O)N(c2ccc(N4CCCCC4=O)cc2)CC3)cc1"
## Result > 30 µM

----------
# reported AC50; entries follow
# experimental.system: Gamma-aminobutyric acid receptor subunit alpha-1 (Rattus norvegicus); note: assay procedure not described here
# Sequence (P62813 whole entry): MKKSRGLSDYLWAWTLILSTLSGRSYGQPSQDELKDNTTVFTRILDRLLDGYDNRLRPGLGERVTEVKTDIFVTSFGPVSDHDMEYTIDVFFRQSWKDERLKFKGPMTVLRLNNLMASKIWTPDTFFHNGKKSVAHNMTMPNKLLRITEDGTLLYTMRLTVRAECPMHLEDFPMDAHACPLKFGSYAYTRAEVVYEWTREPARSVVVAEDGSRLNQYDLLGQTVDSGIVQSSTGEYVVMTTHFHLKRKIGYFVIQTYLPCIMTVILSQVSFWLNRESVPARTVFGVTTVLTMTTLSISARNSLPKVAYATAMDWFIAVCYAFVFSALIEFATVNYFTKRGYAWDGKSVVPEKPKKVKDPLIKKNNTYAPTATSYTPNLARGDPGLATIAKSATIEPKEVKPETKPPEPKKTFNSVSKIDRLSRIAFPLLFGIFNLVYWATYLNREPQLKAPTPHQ
# Type: functional

## Task Look at this compound and give its reported AC50. CN1C2CCCC1CC(NC(=O)c1nn(C)c3ccccc13)C2 (stereo unspecified)
## Result > 10 µM

## Task Now the same for "COC(=O)c1ccc2c(c1)NC(=O)/C2=C(\Nc1ccc(N(C)C(=O)CN2CCN(C)CC2)cc1)c1ccccc1"
## Result > 30 µM

## Task What do you get for "CC(C)(CO)c1cc2cc(NC(=O)C3(c4ccc5c(c4)OC(F)(F)O5)CC3)c(F)cc2n1C[C@@H](O)CO" ?
## Result > 30 µM

## Task Now the same for "O=C1[C@@H]2[C@H]3CC[C@H](C3)[C@@H]2C(=O)N1C[C@@H]1CCCC[C@H]1CN1CCN(c2nsc3ccccc23)CC1"
## Result > 30 µM

## Task Follow-up entry: "CCN(CC)CCCN(c1ccccc1)C1Cc2ccccc2C1"
## Result > 30 µM

## Task Please answer likewise for "Oc1cc(Cl)ccc1Oc1ccc(Cl)cc1Cl"
## Result > 30 µM

## Task Please answer likewise for CCC(=O)c1ccc2c(c1)N(CC(C)N(C)C)c1ccccc1S2 (stereo unspecified)
## Result > 10 µM

## Task Same question, "CN1C(=O)CN=C(c2ccccc2F)c2cc([N+](=O)[O-])ccc21" this time
## Result 0.0055 µM

## Task Try the compound "C[C@H](CS)C(=O)N1CCC[C@H]1C(=O)O"
## Result > 10 µM

## Task Another compound to check: CC(C(=O)O)c1ccc(C(=O)c2ccccc2)s1 (stereo unspecified)
## Result > 30 µM

----------
Collected AC50 values appear next to each entry.
# experimental.system: UniProtKB P20309
# Sequence (P20309 whole entry): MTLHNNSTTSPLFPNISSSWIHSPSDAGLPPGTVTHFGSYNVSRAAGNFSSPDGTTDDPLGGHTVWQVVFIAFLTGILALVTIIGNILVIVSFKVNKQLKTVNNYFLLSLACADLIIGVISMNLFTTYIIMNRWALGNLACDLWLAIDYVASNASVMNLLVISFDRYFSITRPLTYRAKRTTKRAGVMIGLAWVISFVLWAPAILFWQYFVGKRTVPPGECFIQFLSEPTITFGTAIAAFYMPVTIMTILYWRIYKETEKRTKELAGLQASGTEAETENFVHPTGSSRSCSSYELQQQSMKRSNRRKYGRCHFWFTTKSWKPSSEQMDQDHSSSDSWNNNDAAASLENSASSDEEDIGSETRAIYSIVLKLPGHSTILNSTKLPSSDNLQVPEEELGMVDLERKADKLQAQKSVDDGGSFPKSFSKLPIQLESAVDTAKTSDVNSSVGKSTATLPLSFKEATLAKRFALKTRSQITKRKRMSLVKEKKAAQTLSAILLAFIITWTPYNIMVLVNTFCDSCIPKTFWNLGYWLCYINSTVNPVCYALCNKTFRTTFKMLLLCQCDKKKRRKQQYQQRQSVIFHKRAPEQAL

Take a look at these entries with their results.
> print(dat)
                                   compound  experimental.system  assay.endpoint  reported.measurement
1  C[C@H](CCC(=O)O)[C@H]1CC[C@H]2[C@@H]3[C@H](O)C[C@@H]4C[C@H](O)CC[C@]4(C)[C@H]3CC[C@]12C     UniProtKB P20309            AC50               > 30 µM
2  C[C@]12CCC(=O)C=C1[C@@H]1C[C@@H]1[C@H]1[C@@H]3[C@@H]4C[C@@H]4[C@@]4(CCC(=O)O4)[C@@]3(C)CC[C@@H]12     UniProtKB P20309            AC50               > 30 µM

As a next step, examine the compound that follows.
## Task Entry "Cc1ccc(-c2ncc(Cl)cc2-c2ccc(S(C)(=O)=O)cc2)cn1" : reported AC50 = ?
## Result > 10 µM

----------
# experimental.system: Sodium-dependent dopamine transporter (Homo sapiens); note: assay procedure not described here
# Sequence (Q01959 whole entry): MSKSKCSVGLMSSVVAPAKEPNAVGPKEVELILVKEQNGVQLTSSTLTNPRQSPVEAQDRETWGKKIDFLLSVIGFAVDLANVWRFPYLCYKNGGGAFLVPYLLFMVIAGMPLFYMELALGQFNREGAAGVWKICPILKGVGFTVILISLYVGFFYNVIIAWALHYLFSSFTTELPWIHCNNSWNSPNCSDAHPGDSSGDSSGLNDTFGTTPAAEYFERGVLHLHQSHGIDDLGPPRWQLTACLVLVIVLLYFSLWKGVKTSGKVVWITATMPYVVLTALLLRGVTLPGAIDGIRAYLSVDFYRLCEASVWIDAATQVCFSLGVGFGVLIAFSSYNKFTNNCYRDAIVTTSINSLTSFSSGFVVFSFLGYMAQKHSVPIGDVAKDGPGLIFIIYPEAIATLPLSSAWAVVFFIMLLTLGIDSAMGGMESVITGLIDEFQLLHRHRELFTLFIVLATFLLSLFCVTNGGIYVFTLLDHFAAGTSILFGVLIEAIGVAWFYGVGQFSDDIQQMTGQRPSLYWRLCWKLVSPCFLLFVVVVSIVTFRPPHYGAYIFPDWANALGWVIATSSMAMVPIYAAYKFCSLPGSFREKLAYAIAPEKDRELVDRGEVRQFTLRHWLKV
Parameter AC50: see the listing below.

Use the examples below as a reference point.
> print(dat)
                                   compound  assay.endpoint  reported.measurement
1  CC1=C(/C=C/C(C)=C/C=C/C(C)=C\C(=O)O)C(C)(C)CCC1            AC50               > 30 µM
2  C[C@H]1C[C@H]2[C@@H]3CCC4=CC(=O)C=C[C@]4(C)[C@@]3(F)[C@@H](O)C[C@]2(C)[C@@]1(O)C(=O)CO            AC50               > 30 µM
3  CCOC1O[C@H]([C@@H](COCc2ccccc2)OCc2ccccc2)[C@H](OCc2ccccc2)[C@H]1O (some centres undefined) [TRIBENOSIDE]            AC50               > 30 µM

## Task Missing value: AC50, Sodium-dependent dopamine transporter (Homo sapiens), entry "CC(C)NC[C@H](O)COc1ccc(O)cc1" . Fill in?
## Result > 30 µM
